Target: T1, human Nectin-4 (human, UniProt Q96NY8 32-349)
T1 construct: a Gly32-Ser349 FLAG construct is described only under the SPR assay; also called PVRL4
T1 sequence (looked up): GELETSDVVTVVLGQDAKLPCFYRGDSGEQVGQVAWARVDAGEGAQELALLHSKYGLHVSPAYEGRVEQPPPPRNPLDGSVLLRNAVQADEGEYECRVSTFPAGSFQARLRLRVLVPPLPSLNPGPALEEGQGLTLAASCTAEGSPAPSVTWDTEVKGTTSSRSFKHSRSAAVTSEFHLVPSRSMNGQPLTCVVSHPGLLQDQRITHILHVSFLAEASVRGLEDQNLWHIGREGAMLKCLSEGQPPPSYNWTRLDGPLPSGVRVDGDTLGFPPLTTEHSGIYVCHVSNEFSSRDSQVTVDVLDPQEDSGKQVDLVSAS
Assay: FP competition, tracer SEQ ID NO 217
*1 amine or outer side, *2 acyl side, *3 side chain or, on linkers, in order; H or OH if unused. Bridges are numbered along the chain shown (N, C = ends). Where no end group is shown, it is not given here. [ ]: non-standard residue; d: D form. TATA = O=C(CC[*:1])N1CN(C(=O)CC[*:2])CN(C(=O)CC[*:3])C1; Dopa = N[C@@H](Cc1ccc(O)c(O)c1)C(=O)O; hArg = N=C(N)NCCCC[C@H](N)C(=O)O; 2Thi = N[C@@H](Cc1cccs1)C(=O)O
MEASURED_PARAMETER: log10 Ki (log10 of the value in nM)
Values are log10 of Ki in nM.

Enquiry: # log10 Ki lookup, item [dH]DSCPFGCMKSWSWPIWCA (linker 4-8-18 via TATA) [BCY7272]
Return: 1.61

Enquiry: # log10 Ki lookup, item QK(Ac)WCAPLSDYWCNRICA (linker 4-12-16 via TATA) [BCY7280]
Return: 2.34

Enquiry: # log10 Ki lookup, item ACPFGCMKNWSWPAWCTNK (linker 2-6-16 via TATA, also called 80-09-02-T01-N014) [BCY7344]
Return: 1.60

Enquiry: # log10 Ki lookup, item Ac-CP[Dopa][dD]CM[hArg]NWSTPIWC (linker 1-5-15 via TATA) [BCY7886]
Return: 1.18

Enquiry: # log10 Ki lookup, item Ac-CPF[dD]CM[hArg][2Thi]WSTPIWC (linker 1-5-15 via TATA) [BCY7877]
Return: 0.98

Enquiry: # log10 Ki lookup, item ACWPLDPYWCGRICA (linker 2-10-14 via TATA) [BCY430]
Return: 2.49
